Where do the numbers come from? From ChEMBL document CHEMBL2406996.

- Tested on: RAW264.7
- test.details: Cytotoxicity against mouse RAW264.7 cells after 18 hrs by MTS assay
- Type: cell-based
- condition.context: raw264.7, 18 h
Residues, ends and D or L forms follow the SMILES beside them. *: point of attachment. Cbz = O=C(OCc1ccccc1)*
quantity.kind: Activity

C=C1[C@@H](O)[C@@]23C(=CC[C@@H]1[C@H]2O)[C@@]12CO[C@@]3(O)[C@@H](O)[C@@H]1C(C)(C)CC[C@@H]2O = Non-toxic
CC(C)C[C@@H](C=O)NC(=O)[C@H](CC(C)C)NC(=O)[C@H](CC(C)C)NC(=O)OCc1ccccc1 [MG-132] (Cbz-Leu-Leu-Leu-aldehyde) = Non-toxic
C=C1[C@H]2C[C@@H]3OC(=O)[C@@H]4C(C)(C)CC[C@@H]5OC(=O)[C@](C2)([C@@H]1O)[C@@H]3[C@]54C=O = Non-toxic
C=C1C(=O)[C@]23[C@H](O)[C@H]1CC[C@H]2[C@@]12CO[C@]3(O)[C@@H](O)[C@@H]1C(C)(C)CC[C@@H]2O [ORIDONIN] = Non-toxic
C[C@@H]1[C@@H]2C[C@H](O)[C@H]3[C@]45CCCC(C)(C)[C@H]4[C@H](O)[C@](O)(OC5)[C@@]3([C@@H]1O)[C@@H]2O = Non-toxic

Let's switch to this molecule now.
Input: So what's the measured Activity for this one? C=C1C(=O)[C@]23[C@H](O)[C@H]1CC[C@H]2[C@@]12CO[C@@]3(O)[C@@H](O)[C@@H]1C(C)(C)CC[C@@H]2OC(C)=O [LASIOKAURIN]
Output: Non-toxic

---

- Tested on: RAW264.7
- test.details: Cytotoxicity against mouse RAW264.7 cells after 18 hrs by MTS assay
- Format: cell-based
- condition.context: raw264.7, 18 h
quantity.kind: Activity

C=C1C(=O)[C@]23[C@H](O)[C@H]1CC[C@H]2[C@@]12[C@@H](OC)O[C@]3(O)[C@@H](O)[C@@H]1C(C)(C)CC[C@@H]2O = Non-toxic
C=C1C(=O)[C@]23[C@H](O)[C@H]1C[C@@H](O)[C@H]2[C@]12CCCC(C)(C)[C@H]1[C@H](O)[C@@]3(O)OC2 = Non-toxic
C=C1[C@@H](O)[C@]23[C@H](O)[C@H]1CC[C@H]2[C@@]12C(=O)O[C@]3(O)[C@@H](O)[C@@H]1C(C)(C)CC[C@@H]2O = Non-toxic

---

- Test system: HL-60
- test.details: Cytotoxicity against human HL60 cells after 48 hrs by MTT assay
- Type: functional, cell-based
- condition.context: HL-60, 48 h
Let's look at some compounds and their measured IC50.

Below, 3 compounds whose answers are already recorded.
C=C1[C@@H](O)[C@]23[C@H](O)[C@H]1CC[C@H]2[C@@]12C(OC)O[C@]3(O)[C@@H](O)[C@@H]1C(C)(C)CC[C@@H]2O (stereo not given in full) = 5.3 µM
C=C1C(=O)[C@]23[C@H](O)[C@H]1CC[C@H]2[C@@]12CO[C@]3(O)[C@@H](O)[C@@H]1C(C)(C)CC[C@@H]2O [ORIDONIN] = 2.5 µM
C=C1C(=O)[C@]23[C@H](O)[C@H]1CC[C@H]2[C@@]12C(OC)O[C@@]3(O)[C@@H](O)[C@@H]1C(C)(C)CC[C@H]2O (stereo not given in full) [RABDOTERNIN E] = 2.6 µM

Input: So what's the measured IC50 for this one? `C=C1C(=O)[C@]23C[C@H]1CC=C2[C@@]12CO[C@@]3(O)[C@@H](O)[C@@H]1C(C)(C)CC[C@@H]2O`
Output: 8.8 µM

Input: Try this compound next: `C=C1C(=O)[C@]23C[C@H]1CC[C@H]2[C@@]12CO[C@]3(O)[C@@H](O)[C@@H]1C(C)(C)CC[C@@H]2O`
Output: 7.9 µM

Input: Try this compound next: `C=C1[C@@H](O)[C@@]23C(=CC[C@@H]1[C@H]2O)[C@@]12CO[C@@]3(O)[C@@H](O)[C@@H]1C(C)(C)CC[C@@H]2O`
Output: > 10 µM

Input: Try this compound next: `C[C@@H]1[C@@H]2CC[C@H]3[C@]45CCCC(C)(C)[C@H]4[C@H](O)[C@](O)(OC5=O)[C@@]3([C@@H]1O)[C@@H]2O`
Output: > 10 µM

Input: Try this compound next: `C=C1C(=O)[C@]23[C@H](O)[C@H]1C[C@@H](O)[C@H]2[C@]12CCCC(C)(C)[C@H]1[C@H](O)[C@@]3(O)OC2`
Output: 3.5 µM
